target.of.assay: SIRT1 (Homo sapiens, UniProt Q96EB6)
Sequence (Q96EB6 1-747): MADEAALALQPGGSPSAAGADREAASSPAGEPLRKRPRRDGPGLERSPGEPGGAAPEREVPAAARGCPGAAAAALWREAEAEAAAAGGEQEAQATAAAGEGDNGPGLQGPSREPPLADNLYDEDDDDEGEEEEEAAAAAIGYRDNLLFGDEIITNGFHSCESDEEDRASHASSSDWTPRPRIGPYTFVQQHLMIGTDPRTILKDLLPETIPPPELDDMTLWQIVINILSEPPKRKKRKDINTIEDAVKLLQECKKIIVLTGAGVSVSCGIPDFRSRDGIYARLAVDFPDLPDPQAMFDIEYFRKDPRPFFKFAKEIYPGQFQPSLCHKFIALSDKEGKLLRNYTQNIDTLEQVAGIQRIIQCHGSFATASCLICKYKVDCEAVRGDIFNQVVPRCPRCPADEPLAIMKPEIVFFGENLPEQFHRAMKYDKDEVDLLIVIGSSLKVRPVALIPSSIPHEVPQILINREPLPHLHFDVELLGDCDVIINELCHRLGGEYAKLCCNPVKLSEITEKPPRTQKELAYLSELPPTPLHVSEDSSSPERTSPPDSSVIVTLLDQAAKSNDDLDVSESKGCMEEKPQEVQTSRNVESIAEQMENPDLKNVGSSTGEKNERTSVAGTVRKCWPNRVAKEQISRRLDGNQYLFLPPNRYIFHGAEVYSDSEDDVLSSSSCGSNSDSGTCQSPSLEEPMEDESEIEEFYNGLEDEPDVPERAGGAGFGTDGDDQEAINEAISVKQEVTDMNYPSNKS
experiment.summary: Mass spectrometry based assay to identify modulators of SIRT1 activity (deacetylation of p53-based acetylated peptide substrate)
Format: biochemical
test.context: SIRT1 activation

[
  {
    "smiles.text": "O=C(Nc1ccncc1)N1CCOc2ccc(-c3cccc(N4CCCC4)c3)nc21",
    "target.of.assay": "SIRT1 (Homo sapiens, UniProt Q96EB6)",
    "EC1.5": "A (EC1.5<1.0 μM)"
  },
  {
    "smiles.text": "Cc1cc(C)nc(NC(=O)N2CCOc3c(C)cc(-c4cccc(Cl)c4)nc32)c1",
    "target.of.assay": "SIRT1 (Homo sapiens, UniProt Q96EB6)",
    "EC1.5": "A (EC1.5<1.0 μM)"
  },
  {
    "smiles.text": "Cc1csc(NC(=O)N2CCCc3ccc(-c4cccc(C(F)(F)F)c4)nc32)n1",
    "target.of.assay": "SIRT1 (Homo sapiens, UniProt Q96EB6)",
    "EC1.5": "A (EC1.5<1.0 μM)"
  },
  {
    "smiles.text": "Cc1cc(NC(=O)N2CCOc3ccc(-c4cccc(C#N)c4)nc32)cc(C)n1",
    "target.of.assay": "SIRT1 (Homo sapiens, UniProt Q96EB6)",
    "EC1.5": "A (EC1.5<1.0 μM)"
  }
]
